- Assayed system: T1, murine IL-11 (Invigate, e.g., lot #C210819-09) (mouse, UniProt P47873 22-199)
- T1 construct: Bought protein; biotinylated where captured on streptavidin plates; also called mIL-11; mIL11
- T1 sequence: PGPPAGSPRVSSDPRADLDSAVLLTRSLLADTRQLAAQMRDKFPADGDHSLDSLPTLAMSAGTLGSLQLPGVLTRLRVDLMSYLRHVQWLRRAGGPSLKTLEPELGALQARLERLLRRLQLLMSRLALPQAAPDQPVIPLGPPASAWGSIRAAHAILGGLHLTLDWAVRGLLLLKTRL
- Protocol details: SPR, Biacore 8K; antibody captured on anti-human IgG Fc chip, IL-11 analyte 0-50 nM, 1:1 fit
Assignment: determine reported Kd for the given binders.
# output: bare number, implied unit nM

Would you kindly share the measured Kd for TPP-31304 (antibody, human IgG4, V domains shown, consecutive numbering; also called VH-G55A) VH: EVQLLESGGGLVQPGGSLRLSCAASGFTFSHYDMNWLRQAPGKGLEWVGVISYDASNKFYADFVKGRFTISRDNSKNTLYLQMNSLRAEDTAVYYCARTPGSHFDYWGQGTLVTVSS VL: QSVLTQPPSASGTPGQRVTISCSGSSSNIGNNAVNWYQQLPGTAPKLLIYYDDLLPSGVPDRFSGSKSGTSASLAISGLRSEDEADYYCSAWDDSLNGVVFGGGTKLTVL ? 23

Would you kindly share the measured Kd for TPP-31294 (antibody, human IgG4, V domains shown, consecutive numbering; also called VH-G49A) VH: EVQLLESGGGLVQPGGSLRLSCAASGFTFSHYDMNWLRQAPGKGLEWVAVISYDGSNKFYADFVKGRFTISRDNSKNTLYLQMNSLRAEDTAVYYCARTPGSHFDYWGQGTLVTVSS VL: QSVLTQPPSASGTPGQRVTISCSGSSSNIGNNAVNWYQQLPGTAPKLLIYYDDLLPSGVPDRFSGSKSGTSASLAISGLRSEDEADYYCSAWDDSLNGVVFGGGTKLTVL ? 17

Would you kindly share the measured Kd for TPP-31283 (antibody, human IgG4, V domains shown, consecutive numbering; also called VL-L54Q) VH: EVQLLESGGGLVQPGGSLRLSCAASGFTFSHYDMNWLRQAPGKGLEWVGVISYDGSNKFYADFVKGRFTISRDNSKNTLYLQMNSLRAEDTAVYYCARTPGSHFDYWGQGTLVTVSS VL: QSVLTQPPSASGTPGQRVTISCSGSSSNIGNNAVNWYQQLPGTAPKLLIYYDDQLPSGVPDRFSGSKSGTSASLAISGLRSEDEADYYCSAWDDSLNGVVFGGGTKLTVL ? 41

Would you kindly share the measured Kd for TPP-31285 (antibody, human IgG4, V domains shown, consecutive numbering; also called VL-S90A) VH: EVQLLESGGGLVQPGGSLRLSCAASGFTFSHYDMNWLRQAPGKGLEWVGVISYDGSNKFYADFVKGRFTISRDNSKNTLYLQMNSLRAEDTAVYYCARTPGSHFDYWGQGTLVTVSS VL: QSVLTQPPSASGTPGQRVTISCSGSSSNIGNNAVNWYQQLPGTAPKLLIYYDDLLPSGVPDRFSGSKSGTSASLAISGLRSEDEADYYCAAWDDSLNGVVFGGGTKLTVL ? 18

Would you kindly share the measured Kd for TPP-31297 (antibody, human IgG4, V domains shown, consecutive numbering; also called VL-N97Q) VH: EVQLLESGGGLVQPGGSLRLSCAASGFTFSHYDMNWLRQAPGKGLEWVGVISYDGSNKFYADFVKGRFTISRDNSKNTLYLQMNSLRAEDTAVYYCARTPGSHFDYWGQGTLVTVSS VL: QSVLTQPPSASGTPGQRVTISCSGSSSNIGNNAVNWYQQLPGTAPKLLIYYDDLLPSGVPDRFSGSKSGTSASLAISGLRSEDEADYYCSAWDDSLQGVVFGGGTKLTVL ? 14

Would you kindly share the measured Kd for TPP-31292 (antibody, human IgG4, V domains shown, consecutive numbering; also called VH-N35H) VH: EVQLLESGGGLVQPGGSLRLSCAASGFTFSHYDMHWLRQAPGKGLEWVGVISYDGSNKFYADFVKGRFTISRDNSKNTLYLQMNSLRAEDTAVYYCARTPGSHFDYWGQGTLVTVSS VL: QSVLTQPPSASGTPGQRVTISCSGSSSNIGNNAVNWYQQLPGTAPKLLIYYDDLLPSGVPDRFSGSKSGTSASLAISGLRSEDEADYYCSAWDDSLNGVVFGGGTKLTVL ? 19

Would you kindly share the measured Kd for TPP-31303 (antibody, human IgG4, V domains shown, consecutive numbering; also called VH-D54E / VL-G98A) VH: EVQLLESGGGLVQPGGSLRLSCAASGFTFSHYDMNWLRQAPGKGLEWVGVISYEGSNKFYADFVKGRFTISRDNSKNTLYLQMNSLRAEDTAVYYCARTPGSHFDYWGQGTLVTVSS VL: QSVLTQPPSASGTPGQRVTISCSGSSSNIGNNAVNWYQQLPGTAPKLLIYYDDLLPSGVPDRFSGSKSGTSASLAISGLRSEDEADYYCSAWDDSLNAVVFGGGTKLTVL ? 3.6

Would you kindly share the measured Kd for TPP-31290 (antibody, human IgG4, V domains shown, consecutive numbering; also called VH-H31S) VH: EVQLLESGGGLVQPGGSLRLSCAASGFTFSSYDMNWLRQAPGKGLEWVGVISYDGSNKFYADFVKGRFTISRDNSKNTLYLQMNSLRAEDTAVYYCARTPGSHFDYWGQGTLVTVSS VL: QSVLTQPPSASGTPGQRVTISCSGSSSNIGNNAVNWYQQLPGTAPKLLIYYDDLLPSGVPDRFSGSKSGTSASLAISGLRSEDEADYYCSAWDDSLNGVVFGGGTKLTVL ? 300

Would you kindly share the measured Kd for TPP-31311 (antibody, human IgG4, V domains shown, consecutive numbering; also called VH-G55S / VL-G98A) VH: EVQLLESGGGLVQPGGSLRLSCAASGFTFSHYDMNWLRQAPGKGLEWVGVISYDSSNKFYADFVKGRFTISRDNSKNTLYLQMNSLRAEDTAVYYCARTPGSHFDYWGQGTLVTVSS VL: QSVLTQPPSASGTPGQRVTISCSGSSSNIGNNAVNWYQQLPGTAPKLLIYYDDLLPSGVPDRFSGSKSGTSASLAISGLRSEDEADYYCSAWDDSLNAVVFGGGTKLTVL ? 58

Would you kindly share the measured Kd for TPP-31299 (antibody, human IgG4, V domains shown, consecutive numbering; also called VL-G98A) VH: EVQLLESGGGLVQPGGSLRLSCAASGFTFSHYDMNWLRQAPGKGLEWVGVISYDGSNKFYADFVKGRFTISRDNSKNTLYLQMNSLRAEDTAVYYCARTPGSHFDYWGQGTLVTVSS VL: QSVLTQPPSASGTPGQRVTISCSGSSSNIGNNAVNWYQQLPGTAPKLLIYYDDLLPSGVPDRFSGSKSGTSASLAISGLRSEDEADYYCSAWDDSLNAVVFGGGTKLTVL ? 16
